- Test system: Escherichia coli TOP10;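 further: peptides expressed intracellularly from a pBAD plasmid library in pooled LB shake-flask culture, induced with 0.3% L-arabinose, DNA abundance read by NGS, three biological replicates, DESeq2 with apeglm shrinkage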
- experiment description: shrunken log2 fold change of peptide-encoding DNA abundance (4.5 h post-induction vs induction); higher = less antimicrobial activity (less host growth inhibition)
- condition details: time post-induction: 4.5 h; library: site-saturation at positions 5, 18, 19, 20
value kind: shrunken log2 fold change
Write the number on its own, no unit after it.

Prompt: Can you look up the measured shrunken log2 fold change of RRIRVRPPRLPRPRPRPWLGPRP for me?
Response: -0.0696

Prompt: Can you look up the measured shrunken log2 fold change of RRIRIRPPRLPRPRPRPEIAPRP for me?
Response: -0.141

Prompt: Can you look up the measured shrunken log2 fold change of RRIRHRPPRLPRPRPRPKLKPRP for me?
Response: -0.0873

Prompt: Can you look up the measured shrunken log2 fold change of RRIRERPPRLPRPRPRPCFVPRP for me?
Response: -0.151

Prompt: Can you look up the measured shrunken log2 fold change of RRIRYRPPRLPRPRPRPKNSPRP for me?
Response: -1.22

Prompt: Can you look up the measured shrunken log2 fold change of RRIRNRPPRLPRPRPRPHHRPRP for me?
Response: 0.0742

Prompt: Can you look up the measured shrunken log2 fold change of RRIRWRPPRLPRPRPRPSNEPRP for me?
Response: 0.0555

Prompt: Can you look up the measured shrunken log2 fold change of RRIRNRPPRLPRPRPRPDYTPRP for me?
Response: 0.115

Prompt: Can you look up the measured shrunken log2 fold change of RRIRARPPRLPRPRPRPQAAPRP for me?
Response: 1.14

Prompt: Can you look up the measured shrunken log2 fold change of RRIRHRPPRLPRPRPRPLAVPRP for me?
Response: 0.0391

Prompt: Can you look up the measured shrunken log2 fold change of RRIRMRPPRLPRPRPRPSQVPRP for me?
Response: -0.0436

Prompt: Can you look up the measured shrunken log2 fold change of RRIRLRPPRLPRPRPRPGHTPRP for me?
Response: 0.183

Prompt: Can you look up the measured shrunken log2 fold change of RRIRRRPPRLPRPRPRPSDYPRP for me?
Response: -0.185

Prompt: Can you look up the measured shrunken log2 fold change of RRIRWRPPRLPRPRPRPHDQPRP for me?
Response: 0.36

Prompt: Can you look up the measured shrunken log2 fold change of RRIRCRPPRLPRPRPRPPKSPRP for me?
Response: 0.772

Prompt: Can you look up the measured shrunken log2 fold change of RRIRWRPPRLPRPRPRPAMAPRP for me?
Response: 0.529

Prompt: Can you look up the measured shrunken log2 fold change of RRIRWRPPRLPRPRPRPANAPRP for me?
Response: 0.711

Prompt: Can you look up the measured shrunken log2 fold change of RRIRGRPPRLPRPRPRPWPKPRP for me?
Response: 0.199

Prompt: Can you look up the measured shrunken log2 fold change of RRIRLRPPRLPRPRPRPSSHPRP for me?
Response: -0.196

Prompt: Can you look up the measured shrunken log2 fold change of RRIRPRPPRLPRPRPRPLFIPRP for me?
Response: -0.459

Prompt: Can you look up the measured shrunken log2 fold change of RRIRFRPPRLPRPRPRPLCLPRP for me?
Response: -0.431

Prompt: Can you look up the measured shrunken log2 fold change of RRIRERPPRLPRPRPRPINFPRP for me?
Response: -0.291

Prompt: Can you look up the measured shrunken log2 fold change of RRIRKRPPRLPRPRPRPYECPRP for me?
Response: -0.341

Prompt: Can you look up the measured shrunken log2 fold change of RRIRTRPPRLPRPRPRPVWLPRP for me?
Response: -0.101

Prompt: Can you look up the measured shrunken log2 fold change of RRIRIRPPRLPRPRPRPARWPRP for me?
Response: 0.412

Prompt: Can you look up the measured shrunken log2 fold change of RRIRARPPRLPRPRPRPVRGPRP for me?
Response: 0.945

Prompt: Can you look up the measured shrunken log2 fold change of RRIRVRPPRLPRPRPRPCPIPRP for me?
Response: -0.296

Prompt: Can you look up the measured shrunken log2 fold change of RRIRTRPPRLPRPRPRPTFPPRP for me?
Response: -0.0187

Prompt: Can you look up the measured shrunken log2 fold change of RRIRLRPPRLPRPRPRPWSHPRP for me?
Response: 0.00674

Prompt: Can you look up the measured shrunken log2 fold change of RRIRLRPPRLPRPRPRPYWNPRP for me?
Response: -1.03

Prompt: Can you look up the measured shrunken log2 fold change of RRIRNRPPRLPRPRPRPVTVPRP for me?
Response: -0.404

Prompt: Can you look up the measured shrunken log2 fold change of RRIRERPPRLPRPRPRPNERPRP for me?
Response: -0.105

Cited source for all entries: the supplement of paper PMC9112550
